Biological target: α4(3)β2(2) nAChR (Homo sapiens, UniProt P17787+P43681)
Construct: expressed in transfected cells; host or cells: Xenopus laevis oocytes injected with cRNA
Sequence (P17787 26-502): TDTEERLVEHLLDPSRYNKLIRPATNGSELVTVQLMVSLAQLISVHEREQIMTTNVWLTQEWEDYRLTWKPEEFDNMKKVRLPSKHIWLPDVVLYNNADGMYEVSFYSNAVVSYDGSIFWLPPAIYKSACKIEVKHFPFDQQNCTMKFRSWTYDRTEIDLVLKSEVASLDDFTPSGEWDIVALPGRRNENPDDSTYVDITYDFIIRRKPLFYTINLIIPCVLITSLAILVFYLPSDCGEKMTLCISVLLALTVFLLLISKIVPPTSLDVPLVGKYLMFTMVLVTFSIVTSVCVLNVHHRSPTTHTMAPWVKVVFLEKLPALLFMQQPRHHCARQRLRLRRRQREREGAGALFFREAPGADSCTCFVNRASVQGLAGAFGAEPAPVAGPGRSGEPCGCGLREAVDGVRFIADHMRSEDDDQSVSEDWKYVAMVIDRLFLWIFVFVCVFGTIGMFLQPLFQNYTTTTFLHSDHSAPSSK
Sequence (P43681 29-627 limits assumed): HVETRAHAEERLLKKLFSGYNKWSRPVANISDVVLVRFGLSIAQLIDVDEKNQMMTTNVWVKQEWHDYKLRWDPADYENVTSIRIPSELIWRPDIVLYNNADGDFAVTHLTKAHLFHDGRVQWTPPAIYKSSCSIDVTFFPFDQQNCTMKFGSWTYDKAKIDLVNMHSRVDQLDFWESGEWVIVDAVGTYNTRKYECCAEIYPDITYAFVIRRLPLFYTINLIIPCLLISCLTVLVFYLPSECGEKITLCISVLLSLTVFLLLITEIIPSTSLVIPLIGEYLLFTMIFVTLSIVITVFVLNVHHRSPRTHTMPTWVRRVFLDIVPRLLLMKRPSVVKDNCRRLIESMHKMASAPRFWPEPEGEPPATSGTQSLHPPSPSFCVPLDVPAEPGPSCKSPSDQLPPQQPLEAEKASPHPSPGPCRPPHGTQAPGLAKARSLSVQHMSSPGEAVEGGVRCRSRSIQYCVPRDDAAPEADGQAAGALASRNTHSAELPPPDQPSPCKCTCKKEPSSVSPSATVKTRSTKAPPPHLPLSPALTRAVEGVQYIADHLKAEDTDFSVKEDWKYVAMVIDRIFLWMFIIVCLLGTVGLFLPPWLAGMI
Sequence (P43681 29-627 limits assumed): as above
Assay: Acute co-application of ACh and cytisine, model fit of peak current responses in oocytes
Type: cell-based
Conditions: noncompetitive inhibition factor; read-out: Inhibition IC50 of the partial agonist (best fit)
Experimental readout: pIC50
pIC50 is a log-scale quantity: -log10 of the concentration expressed in molar.

Quick one: give measured pIC50 for O=c1cccc2n1C[C@@H]1CNC[C@H]2C1
4.49

---

Biological target: α7 nAChR (Homo sapiens)
Construct: expressed in transfected cells; host or cells: Xenopus laevis oocytes injected with cRNA
Assay: Bupropion co-applied with ACh: inhibition of ACh-evoked responses, oocytes
Assay type: cell-based
Conditions: read-out: Co-application IC50
Description: Initial experiments were run for 50 minutes after the introduction of the experimental compounds into the bath.
Experimental readout: IC50
Quick note: number first, unit second.

Quick one: give measured IC50 for CC(NC(C)(C)C)C(=O)c1cccc(Cl)c1 (stereo not shown)
46 µM

---

Target: HS α4β2 (α4(2)β2(3)) nAChR (Homo sapiens, UniProt P17787+P43681)
Construct: expressed in transfected cells; host or cells: Xenopus laevis oocytes injected with cRNA
Sequence (P17787 26-502): as the sequence (P17787 26-502) above
Sequence (P43681 29-627 limits assumed): as the sequence (P43681 29-627 limits assumed) above
Sequence (P17787 26-502): as the sequence (P17787 26-502) above
Test: Bath application of test compound: inhibition of ACh-evoked peak currents in Xenopus oocytes
Type: cell-based
Experimental readout: IC50 (nM)
Your answer is read as nM, so omit the unit and give the number.

Give IC50 only, for O=c1cccc2n1C[C@@H]1CNC[C@H]2C1 , using HS α4β2 (α4(2)β2(3)) nAChR (Homo sapiens, UniProt P17787+P43681) data.
8

---

Biological target: α4(3)β2(2) nAChR (Homo sapiens, UniProt P17787+P43681)
Assay: Acute co-application of ACh and cytisine, model fit of peak current responses in oocytes
Settings: peak current; read-out: Activation EC50 (best fit)
Text: FIG. 2.1 illustrates a model applied to the activation of nAChR by simultaneous co-applications of the full agonist “a” and a partial agonist “p”. […] The IMax of the full agonist is assigned a value of 1. The first and second terms of the equation represent the activation produced by the full agonist and partial agonists, respectively, scaled by their potencies and weighted by receptor availability. The third term allows noncompetitive effects of the partial agonist. […]
Experimental readout: pEC50
pEC50 is a log-scale quantity: -log10 of the concentration expressed in molar.

Quick one: give measured pEC50 for O=c1cccc2n1C[C@@H]1CNC[C@H]2C1
4.06

---

Target: α7 nAChR (Homo sapiens, UniProt P36544)
Construct: expressed in transfected cells; host or cells: Xenopus laevis oocytes injected with cRNA
Sequence (P36544 23-502): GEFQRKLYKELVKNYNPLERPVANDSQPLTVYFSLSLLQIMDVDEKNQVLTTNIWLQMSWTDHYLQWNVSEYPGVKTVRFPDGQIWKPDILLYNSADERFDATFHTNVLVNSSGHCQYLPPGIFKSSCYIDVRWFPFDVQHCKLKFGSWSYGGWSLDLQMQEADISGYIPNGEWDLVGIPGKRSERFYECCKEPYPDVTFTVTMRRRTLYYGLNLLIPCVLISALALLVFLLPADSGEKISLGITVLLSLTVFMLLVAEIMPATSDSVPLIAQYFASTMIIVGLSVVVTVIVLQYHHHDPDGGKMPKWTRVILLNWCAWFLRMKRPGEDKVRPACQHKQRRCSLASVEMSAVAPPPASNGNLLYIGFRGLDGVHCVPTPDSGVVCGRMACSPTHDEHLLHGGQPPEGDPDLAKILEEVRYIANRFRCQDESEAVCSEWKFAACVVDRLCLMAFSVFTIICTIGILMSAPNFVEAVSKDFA
Assay: Bath application of test compound: modulation of ACh-evoked net charge responses in Xenopus oocytes
Format: cell-based
Experimental readout: pIC50
pIC50 is a log-scale quantity: -log10 of the concentration expressed in molar.

Quick one: give measured pIC50 for COc1ccc(/C=C2\CCCN=C2c2cccnc2)c(OC)c1
5.89

---

Molecular target: LS α4β2 (α4(3)β2(2)) nAChR (Homo sapiens, UniProt P17787+P43681)
Construct: expressed in transfected cells; host or cells: Xenopus laevis oocytes injected with cRNA
Assay: Bath application of test compound: inhibition of ACh-evoked peak currents in Xenopus oocytes
Format: cell-based
Conditions: Example 1; average of 30-40 min time points; 30 μM ACh; peak currents; read-out: IC50, inhibition of ACh-evoked responses by prolonged bath application
Experimental readout: pIC50
pIC50 is a log-scale quantity: -log10 of the concentration expressed in molar.

Quick one: give measured pIC50 for O=c1c(-c2cccnc2)ccc2n1C[C@@H]1CNC[C@H]2C1
5.27

---

Target: α7 nAChR (Homo sapiens)
Construct: expressed in transfected cells; host or cells: Xenopus laevis oocytes injected with cRNA
Assay: Bath application of test compound: modulation of ACh-evoked net charge responses in Xenopus oocytes
Assay type: cell-based
Settings: 30 minutes in bath; read-out: Bath application IC50
Procedure: We have extended this approach to defined receptor subtypes expressed in Xenopus oocytes. Experiments were conducted on cells expressing HS α4β2 (α4(2)β2(3)), LS α4β2 (α4(3)β2(2)), or α7 nAChR. […] Experiments were conducted using OpusXpress 6000A (Molecular Devices, Union City Calif.) and analyzed as described previously (Papke and Papke, 2002; Horenstein et al., 2008; Papke and Stokes, 2010). […]
Experimental readout: IC50 (µM)
Your answer is read as µM, so omit the unit and give the number.

Quick one: give measured IC50 for CC(NC(C)(C)C)C(=O)c1cccc(Cl)c1 (stereo not shown) [bupropion]
16

---

Target: HS α4β2 (α4(2)β2(3)) nAChR (Homo sapiens, UniProt P17787+P43681)
Construct: expressed in transfected cells; host or cells: Xenopus laevis oocytes injected with cRNA
Assay: Bath application of test compound: inhibition of ACh-evoked peak currents in Xenopus oocytes
Format: cell-based
Details: read-out: IC50, inhibition of ACh-evoked responses by prolonged bath application
Experimental readout: pIC50
pIC50 is a log-scale quantity: -log10 of the concentration expressed in molar.

Quick one: give measured pIC50 for COc1ccc(/C=C2\CCCN=C2c2cccnc2)c(OC)c1 [GTS-21, 3-(2,4-dimethoxybenzylidene)anabaseine]
6.77

---

Biological target: HS α4β2 (α4(2)β2(3)) nAChR (Homo sapiens, UniProt P17787+P43681)
Construct: expressed in transfected cells; host or cells: Xenopus laevis oocytes injected with cRNA
Experiment: Bath application of test compound: inhibition of ACh-evoked peak currents in Xenopus oocytes
Assay type: cell-based
Details: Example 1; average of 30-40 min time points; 10 μM ACh; peak currents; read-out: IC50, inhibition of ACh-evoked responses by prolonged bath application
Experimental readout: IC50 (nM)
Your answer is read as nM, so omit the unit and give the number.

Quick one: give measured IC50 for O=c1c(-c2cccnc2)ccc2n1C[C@@H]1CNC[C@H]2C1
653

---

Target: LS α4β2 (α4(3)β2(2)) nAChR (Homo sapiens, UniProt P17787+P43681)
Construct: expressed in transfected cells; host or cells: Xenopus laevis oocytes injected with cRNA
Assay: Bath application of test compound: inhibition of ACh-evoked peak currents in Xenopus oocytes
Format: cell-based
Conditions: read-out: IC50 for the inhibition of ACh evoked responses by bath applications of agonists and partial agonists; Table 2; after 30±4 min bath application; 30 μM ACh
Quick reference for IC50 among some molecules
Your answer is read as µM, so omit the unit and give the number.

{"Smiles structure": "C[n+]1ccccc1CC(=O)c1ccc(Br)cc1", "Observed value": 36}

Give IC50 only, for O=c1c(-c2cccnc2)ccc2n1C[C@@H]1CNC[C@H]2C1 , using LS α4β2 (α4(3)β2(2)) nAChR (Homo sapiens, UniProt P17787+P43681) data.
16

---

Quick reference for pIC50 among some molecules
Molecular target: HS α4β2 (α4(2)β2(3)) nAChR (Homo sapiens, UniProt P17787+P43681)
Construct: expressed in transfected cells; host or cells: Xenopus laevis oocytes injected with cRNA
Assay: Bath application of test compound: inhibition of ACh-evoked peak currents in Xenopus oocytes
Type: cell-based
Settings: read-out: IC50 for the inhibition of ACh evoked responses by bath applications of agonists and partial agonists; Table 2; after 30±4 min bath application; 10 μM ACh
pIC50 is a log-scale quantity: -log10 of the concentration expressed in molar.

{"Molecule": "C[n+]1ccccc1CC(=O)c1ccc(Br)cc1 [S 24795]", "Target": "HS α4β2 (α4(2)β2(3)) nAChR (Homo sapiens, UniProt P17787+P43681)", "pIC50": 4.28}

Let us examine a further case.
Quick one: give measured pIC50 for O=c1c(-c2cccnc2)ccc2n1C[C@@H]1CNC[C@H]2C1 [3-pyr-Cyt, 3-(pyridin-3′-yl)-cytisine]
6.22

---

Biological target: α7 nAChR (Homo sapiens)
Construct: expressed in transfected cells; host or cells: Xenopus laevis oocytes injected with cRNA
Test: Bath application of test compound: modulation of ACh-evoked net charge responses in Xenopus oocytes
Type: cell-based
Settings: IC50 for the inhibition of ACh evoked responses by bath applications of agonists and partial agonists
Experimental readout: pIC50
pIC50 is a log-scale quantity: -log10 of the concentration expressed in molar.

Give pIC50 only, for O=c1cccc2n1C[C@@H]1CNC[C@H]2C1 , using α7 nAChR (Homo sapiens) data.
5.92

---

Biological target: α7 nAChR (Homo sapiens, UniProt P36544)
Construct: expressed in transfected cells; host or cells: Xenopus laevis oocytes injected with cRNA
Assay: Bath application of test compound: modulation of ACh-evoked net charge responses in Xenopus oocytes
Type: cell-based
Conditions: Example 1; average of 30-40 min time points; 60 μM ACh; net charge; read-out: IC50, inhibition of ACh-evoked responses by prolonged bath application
Experimental readout: pIC50
pIC50 is a log-scale quantity: -log10 of the concentration expressed in molar.

{"Smiles structure": "O=c1c(-c2cccnc2)ccc2n1C[C@@H]1CNC[C@H]2C1", "Target": "α7 nAChR (Homo sapiens, UniProt P36544)", "Observed value": 3.99}

Let us examine a further case.
Quick one: give measured pIC50 for COc1ccc(/C=C2\CCCN=C2c2cccnc2)c(OC)c1
5.92
